ASSAY_PROCEDURE: Apparent permeability from basolateral to apical side in MDR-MDCK cells overexpressing human p-glycoprotein at 5 uM after 120 mins
Assay type: ADME, cell-based
CONDITIONS_USED: MDCK-MDR1
Below is a list of entries, each paired with its recorded Papp B→A at 2 h, 5 µM value.
ENDPOINT: Papp B→A at 2 h, 5 µM

INSERT INTO assay_data (smiles_data, endpoint, val) VALUES
  ('CC(=O)O[C@@]12CO[C@@H]1C[C@H](O)[C@@]1(C)C(=O)[C@H](O)C3=C(C)[C@@H](OC(=O)[C@H](O)[C@@H](NC(=O)c4ccccc4)c4ccccc4)C[C@@](O)([C@@H](OC(=O)c4ccccc4)[C@H]21)C3(C)C', 'Papp B→A at 2 h, 5 µM', '5.17 ×10⁻⁶ cm/s'),
  ('COC(=O)CNC(=O)O[C@H]1C(=O)[C@@]2(C)[C@H]([C@H](OC(=O)c3ccccc3)[C@]3(O)C[C@H](OC(=O)[C@H](O)[C@@H](NC(=O)c4ccccc4)c4ccccc4)C(C)=C1C3(C)C)[C@]1(OC(C)=O)CO[C@@H]1C[C@@H]2O', 'Papp B→A at 2 h, 5 µM', '3.36 ×10⁻⁶ cm/s'),
  ('CC(=O)O[C@@]12CO[C@@H]1C[C@H](O)[C@@]1(C)C(=O)[C@H](OC(=O)N3CCOCC3)C3=C(C)[C@@H](OC(=O)[C@H](O)[C@@H](NC(=O)c4ccccc4)c4ccccc4)C[C@@](O)([C@@H](OC(=O)c4ccccc4)[C@H]21)C3(C)C', 'Papp B→A at 2 h, 5 µM', '22.6 ×10⁻⁶ cm/s'),
  ('CC(=O)O[C@@]12CO[C@@H]1C[C@H](O)[C@@]1(C)C(=O)[C@H](OC(=O)N[C@H](C)C(=O)O)C3=C(C)[C@@H](OC(=O)[C@H](O)[C@@H](NC(=O)c4ccccc4)c4ccccc4)C[C@@](O)([C@@H](OC(=O)c4ccccc4)[C@H]21)C3(C)C', 'Papp B→A at 2 h, 5 µM', '< 0.63 ×10⁻⁶ cm/s'),
  ('CC(=O)O[C@@]12CO[C@@H]1C[C@H](O)[C@@]1(C)C(=O)[C@H](OC(=O)N(C)C(C)(C)C(=O)O)C3=C(C)[C@@H](OC(=O)[C@H](O)[C@@H](NC(=O)c4ccccc4)c4ccccc4)C[C@@](O)([C@@H](OC(=O)c4ccccc4)[C@H]21)C3(C)C', 'Papp B→A at 2 h, 5 µM', '0.05 ×10⁻⁶ cm/s');
